# System: NCI-H226 lung
# experiment_description: NCI-60 one-dose screen, 48 h (100 = growth as untreated, 0 = no growth, -100 = all killed)
# study_conditions: 10 µM unless noted
The panel holds about 83,000 compounds, 20% with a hit somewhere; the sample as a whole holds those more often.
Lab note: compare growth with -10%, writing satisfied if less and not satisfied if equal or more.

compound=O=C(CSc1nnc(-c2ccc(-c3nc4ccccc4[nH]3)cc2)o1)Nc1ccccc1 group_label="not satisfied"
compound="COc1ccc2c(c1)C(Sc1ccc(Br)cc1)c1c(nc(N)c(C#N)c1N)O2 (stereo not given)" group_label="not satisfied"
compound=COc1ccccc1/C=C/c1cccc(NC(=S)NCCCCN(C)C)c1 group_label=satisfied
compound="O=C(c1ccc(O)cc1)C1[C@H](c2ccc(Cl)cc2)[C@@H](c2ccccc2)NC12C(=O)Nc1ccccc12 (stereo not given in full)" group_label=satisfied
compound=Cn1cc(-c2cc(N)n3nc(-c4c[nH]c5ccccc45)cc3n2)c2cc(Br)ccc21 group_label=satisfied
compound=CCCn1c(NC(=O)c2cccc(C(N)=O)c2)nc2ccc(CN3CCCCC3)cc21 group_label="not satisfied"
compound=C/C(=N/O)c1ccc(NC(=O)CSc2nnc(-c3ccc(-c4nc5ccc(Cl)cc5[nH]4)cc3)o2)cc1 group_label=satisfied
compound=COc1ccc(NC(=O)CSc2nnc(-c3ccc(-c4nc5ccccc5[nH]4)cc3)o2)cc1 group_label="not satisfied"
compound=Nc1nn2c(-c3cc4ccccc4oc3=O)ccnc2c1N=Nc1ccccc1 group_label="not satisfied"

Exercise: Please indicate whether the reported growth of COc1ccc(NC2=C(I)C(=O)C(C)=C(C)C2=O)cc1 is strictly below -10%.
Solution: not satisfied

* * *

# Test system: SNB-19 CNS
# experiment_description: NCI-60 one-dose screen, 48 h
# study_conditions: 10 µM unless noted
The panel holds about 83,000 compounds, 20% with a hit somewhere; the sample as a whole holds those more often. Activity calls are given as the source filed them. Rule for the calls: active = growth percent below 10; inactive = the rest.
Give your call using only these classes: active, inactive

The following molecules have reported results that may help.
molecule=COc1cc(CNC(=O)C[C@H](C)CCC=C(C)C)ccc1OCc1cn(-c2ccc(Cl)cc2Cl)nn1 experimental_target="SNB-19 CNS" group_label=inactive
molecule=Cc1ccc(C(C)C)cc1Oc1cccc(-c2c(-c3ccc(C(F)(F)F)cc3)ncn2C2CCNCC2)n1 experimental_target="SNB-19 CNS" group_label=active
molecule=Nc1cc(-c2c[nH]c3ccc(Cl)cc23)nc2cc(-c3c[nH]c4ccccc34)nn12 experimental_target="SNB-19 CNS" group_label=active
molecule=O=C(Nc1nc2ccc([N+](=O)[O-])cc2s1)Nc1ccccc1F experimental_target="SNB-19 CNS" group_label=inactive
molecule=CN(C)c1nc(NCCNS(=O)(=O)c2ccc(C(=O)/C=C/c3ccc(Cl)cc3)cc2)nc(N2CCOCC2)n1 experimental_target="SNB-19 CNS" group_label=inactive

Exercise: State the result this test recorded for COc1cc(C2CC(c3cc(OC)c(OC)c(OC)c3)=Nc3c(N)nc(N)nc3N2)ccc1Oc1nc(Nc2ccc(F)cc2)nc(N(C)C)n1 (stereo not drawn) .
Solution: inactive

Exercise: # outcome recorded in this test, key = Nc1cc2ccccc2c(=O)n1NC(=O)c1ccc(Br)cc1
Solution: inactive

Exercise: # outcome recorded in this test, key = CC[C@]12C=CCN3CC[C@]4(C(=C(C(=O)OC)C1)Nc1cc(OC)c([C@@H]5[C@H]6O[C@H]6[C@@]6(CC)CC(C(=O)OC)=C7Nc8cc(OC)ccc8[C@@]78CCN5[C@@H]68)cc14)[C@@H]32
Solution: inactive

* * *

# Tested on: M14 melanoma
# experiment_description: NCI-60 one-dose screen, 48 h
# study_conditions: 10 µM unless noted
# Protocol: Growth inhibition of the M14 human tumor cell line is measured as a screen for anti-cancer activity. Cells are grown in 96 well plates and exposed to the test compound for 48 hours. Compounds are tested at a single concentration, which is 10^-5 M for most compounds. The reported endpoint is percent growth (GI% or GIPRCNT), where numbers from 0 - 100% represent growth inhibition, and numbers from -100% - 0 represent cell death. For example, a value of 40 represents 60% growth inhibition. […]
Compounds without any hit were thinned out: in the full panel of roughly 83,000, 20% have a hit. The source made the active and inactive calls. The calls were made as follows: active = growth percent below 10; inactive = the rest.
Your response should consist of one outcome taken from true for active, false for inactive

The examples below pair each entry with its known result.
compound=COc1cc(NC(=O)C(C)C)ccc1C(=O)NC(=S)Nc1ccc(S(N)(=O)=O)cc1 group_label=false
compound=Cc1nc2sccn2c1-c1nnc(SCc2ccccc2)o1 group_label=false
compound=COc1ccc(-c2cc(-c3cc(OC)c(OC)c(OC)c3)[nH]c(=O)c2C#N)cc1 group_label=false
compound=COc1ccc2nc(NC(=O)c3ccc(N(C)C)cc3)sc2c1 group_label=false
compound=O=C(Nc1nc2ccccc2s1)Nc1ccccc1Cl group_label=false

Exercise: Kindly provide the recorded test outcome for the following compound: CCCSc1nnc(-c2c(C)nc3sccn23)o1
Solution: false

Exercise: Answer briefly: the call reported for O=C(COc1ccc(/C=C2/C(=O)Nc3ccc(Cl)cc32)cc1)Nc1ccc(Br)cc1 in this assay.
Solution: true

Exercise: Identify the outcome logged in this assay for the compound shown: CCOc1ccccc1[C@H]1C(C(=O)c2ccc(Cl)cc2)C2(N[C@@H]1c1ccccc1)C(=O)Nc1ccccc12 (stereo partly drawn)
Solution: false

Exercise: Hi team, can someone confirm the assay call for COc1cc(C2CC(c3cc(OC)c(OC)c(OC)c3)=Nc3c(N)nc(N)nc3N2)ccc1Oc1nc(Nc2ccc(F)cc2)nc(N(C)C)n1 (stereo not drawn) ?
Solution: false

Exercise: Hi, do you know how O=C1Nc2cc(-c3ccc(NS(=O)(=O)c4ccc(C(F)(F)F)cc4)cc3)ccc2/C1=C/c1ccc[nH]1 came out in this test?
Solution: false

Exercise: What did the test return for COc1ccc(N=Nc2c(N)nn3c(-c4ccc(F)cc4)ccnc23)cc1 ?
Solution: false

Exercise: Outcome logged for CCCCCCCOc1ccc(S(=O)(=O)Nc2ccc(C)c(F)c2C(=O)O)cc1 in this assay:
Solution: false

Exercise: Per the assay record, what outcome was assigned to Cc1ccccc1NC(=O)c1cccc(NC(=O)CCl)c1 ?
Solution: false

Exercise: Which result was noted for this compound in the test: Cc1ccc(C(=O)Nc2cc(-n3cnc(F)c3)cc(C(F)(F)F)c2)cc1C#Cc1cnc2cccnn12
Solution: false

* * *

# System: NCI-H460 lung
# experiment_description: NCI-60 one-dose screen, 48 h (100 = growth as untreated, 0 = no growth, -100 = all killed)
# study_conditions: 10 µM unless noted
Compounds without any hit were thinned out: in the full panel of roughly 83,000, 20% have a hit.
readout_label: growth (%)
Your answer should be a plain number; it is taken to be in %.

compound=CC[C@]12C=CCN3CC[C@@]4(c5ccc(OC)cc5N(C)[C@H]4[C@@](O)(C(=O)OC)[C@@H]1OC(=O)CCC[P+](c1ccc(OC)cc1)(c1ccc(OC)cc1)c1ccc(OC)cc1)[C@@H]32 unit_of_measurement=% result=-85.2

Exercise: Supply growth value. Item: CCOc1ccccc1[C@H]1C(C(=O)c2ccc(Cl)cc2)C2(N[C@@H]1c1ccccc1)C(=O)Nc1ccccc12 (stereo partly drawn)
Solution: -36.3

Exercise: Report measured growth; entry is OCCn1cc(-c2nc3ccc4[nH]ncc4c3c3c2CCCC3)cn1
Solution: 20

* * *

# maps each entry to its growth
# System: NCI/ADR-RES ovarian
# experiment_description: NCI-60 one-dose screen, 48 h (100 = growth as untreated, 0 = no growth, -100 = all killed)
# study_conditions: 10 µM unless noted
This is part of a sample that, as a whole, favours compounds with a hit. Of some 83,000 tested, about 20% had one in any assay. Active and inactive are the calls of the source. How the source made its calls: active means growth percent below 10; inactive means the rest.

Recorded growth, per entry:
compound=Cc1nn(-c2ccccc2)c2nc(C)n(CC(=O)N/N=C/c3ccccc3O)c(=O)c12 experimental_target="NCI/ADR-RES ovarian" result="16.7% (inactive)"
compound=O=C1NC(=NC23CC4CC(CC(C4)C2)C3)N/C1=C\c1ccc2ncccc2c1 experimental_target="NCI/ADR-RES ovarian" result="-28.7% (active)"
compound=Cc1ccc(Cl)cc1NC(=O)N/C(N)=N/c1nc2ccccc2s1 experimental_target="NCI/ADR-RES ovarian" result="-34.8% (active)"

Exercise: Look up growth of N#Cc1c(-c2ccc(F)cc2)nc(SCc2ccc(F)cc2)nc1N1CCNCC1 and report it.
Solution: -39% (active)

Exercise: Query growth for S=C(NCCc1ccccc1)Nc1ccc(OCc2nc3ccc(Cl)cc3[nH]2)cc1
Solution: 11.7% (inactive)

Exercise: Provide measured growth value, entry: OC(c1ccccc1)(c1ccccc1)C1CCN(c2ccc3nnc(Cl)n3n2)CC1
Solution: 18.6% (inactive)

Exercise: Look up and state reported growth for C/C(=N/O)c1ccc(NC(=O)CSc2nnc(-c3ccc4nc(-c5ccc(Cl)cc5)[nH]c4c3)o2)cc1
Solution: 101% (inactive)

Exercise: Look up and state reported growth for COc1sc(/C=N/NC(=O)c2[nH]c3ccc(Br)cc3c2-c2ccccc2)cc1Cl
Solution: -48.7% (active)

Exercise: Supply measured growth of FC(F)(F)c1cc2c(Cl)ncnc2n1CCC1CCOCC1 in your reply.
Solution: 69% (inactive)

Exercise: Look up growth of O=C(N/N=C/c1ccc(Cl)cc1)c1ccc(OCc2nc3ccc(Cl)cc3[nH]2)cc1 and report it.
Solution: 45.4% (inactive)
